The measured values listed here are drawn from patent US20140179681A1.

subject_of_test: EGFR (Homo sapiens, UniProt P00533)
Construct: host or cells: A431
Sequence (P00533 25-1210): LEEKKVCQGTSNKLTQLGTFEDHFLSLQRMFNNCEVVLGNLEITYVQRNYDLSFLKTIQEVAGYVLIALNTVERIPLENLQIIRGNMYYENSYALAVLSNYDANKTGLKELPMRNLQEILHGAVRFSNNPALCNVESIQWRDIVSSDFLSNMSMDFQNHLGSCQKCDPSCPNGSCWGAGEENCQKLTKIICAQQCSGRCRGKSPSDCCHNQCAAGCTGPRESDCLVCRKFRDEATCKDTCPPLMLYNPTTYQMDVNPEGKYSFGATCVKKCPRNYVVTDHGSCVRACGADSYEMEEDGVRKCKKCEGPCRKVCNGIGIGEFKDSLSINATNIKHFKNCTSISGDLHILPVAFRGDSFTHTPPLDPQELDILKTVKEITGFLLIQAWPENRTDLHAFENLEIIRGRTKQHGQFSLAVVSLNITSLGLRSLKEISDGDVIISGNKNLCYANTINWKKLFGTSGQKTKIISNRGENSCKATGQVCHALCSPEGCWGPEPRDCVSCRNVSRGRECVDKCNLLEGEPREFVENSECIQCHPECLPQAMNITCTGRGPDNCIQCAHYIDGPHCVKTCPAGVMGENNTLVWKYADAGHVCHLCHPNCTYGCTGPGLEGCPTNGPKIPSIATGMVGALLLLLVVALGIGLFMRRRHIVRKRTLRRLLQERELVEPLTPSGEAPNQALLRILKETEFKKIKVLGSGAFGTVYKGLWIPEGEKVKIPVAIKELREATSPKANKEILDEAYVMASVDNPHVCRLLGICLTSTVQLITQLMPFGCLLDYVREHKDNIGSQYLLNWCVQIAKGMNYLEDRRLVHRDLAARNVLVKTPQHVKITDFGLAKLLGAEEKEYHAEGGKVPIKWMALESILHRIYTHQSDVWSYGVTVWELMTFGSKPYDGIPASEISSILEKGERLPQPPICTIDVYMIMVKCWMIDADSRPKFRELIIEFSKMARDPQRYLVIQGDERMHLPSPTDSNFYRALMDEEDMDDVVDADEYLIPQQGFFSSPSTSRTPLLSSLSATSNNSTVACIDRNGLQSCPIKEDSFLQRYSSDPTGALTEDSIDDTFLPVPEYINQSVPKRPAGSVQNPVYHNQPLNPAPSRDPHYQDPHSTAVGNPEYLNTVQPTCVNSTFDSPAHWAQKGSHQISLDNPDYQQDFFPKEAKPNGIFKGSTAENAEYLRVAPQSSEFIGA
protocol: EGFR in-cell Western (ICW) screening protocol (EGFR inhibition assay)
Type: cell-based
Set-up: unit not given here
recorded_conditions: ICW assay, average of runs 1 and 2
Counter-ions that a name gives are not always drawn.
Label 0.0 if ICW Avg falls below 40; label 1.0 in every other case.

molecule | category_label
CCCCc1c(C)nc(Nc2nc(C)c3ccc(C)cc3n2)[nH]c1=O [12776 + TFA] | 0.0
Cc1ccc2nc(Nc3nc(=O)cc(-c4ccccc4)[nH]3)nc(C)c2c1 | 1.0
CCOC(=O)c1c(N)nc(Nc2nc(C)c3cc(C)c(C)cc3n2)nc1-c1ccccc1 | 1.0
CCc1c(C)nc(Nc2nc(C)c3ccc(C)cc3n2)[nH]c1=O [12665 + TFA] | 1.0
CCOc1ccc2nc(Nc3nc(C)c(CCC(C)C)c(=O)[nH]3)nc(C)c2c1 [12684 + TFA] | 0.0
CCCc1cc(=O)[nH]c(Nc2nc(C)c3ccc(OC)cc3n2)n1 [AD4-12652 + TFA] | 1.0
O=c1[nH]c(Nc2nc(-c3ccccc3)c3cc(Cl)ccc3n2)nc2ccccc12 [11706 + TFA] | 0.0

----------
Tested on: MDBK line
protocol: MTT Cell Proliferation Assay, MDBK cells
Type: cell-based, bovine
recorded_conditions: Bos taurus, MDBK, Table 11; second of x/y(ratio): MDBK; unit not printed (doses in μM); read-out: MTT Screen (second value)
reported_metric: IC50

query_smiles | subject_of_test | observed
Cc1ccc2c(CN3CCN(Cc4ccc5c(c4)OCO5)CC3)cc(=O)oc2c1C | MDBK line | 16 µM
CCc1cc2c(CN3CCN(Cc4ccc5c(c4)OCO5)CC3)cc(=O)oc2cc1O | MDBK line | 42.5 µM
Cc1c(O)ccc2c(CN3CCN(Cc4ccc5c(c4)OCO5)CC3)cc(=O)oc12 | MDBK line | 41.3 µM
CCc1cc2c(CN3CCN(c4ccc(OC)cc4)CC3)cc(=O)oc2cc1O | MDBK line | 21 µM
CC(C)c1ccc2oc(=O)cc(CN3CCN(Cc4ccc5c(c4)OCO5)CC3)c2c1 | MDBK line | 43.3 µM
O=c1cc(CN2CCN(Cc3ccc4c(c3)OCO4)CC2)c2cc3c(cc2o1)CCC3 | MDBK line | 13.9 µM
O=c1cc(CN2CCN(Cc3ccccc3)CC2)c2cc(Cl)c(O)cc2o1 | MDBK line | 36.3 µM
Cc1cc(C)c2oc(=O)cc(CN3CCN(Cc4ccc5c(c4)OCO5)CC3)c2c1 | MDBK line | 8.58 µM
CCc1cc2c(CN3CCN(Cc4ccccc4)CC3)cc(=O)oc2cc1O | MDBK line | 45.7 µM
Cc1cc(C)c2c(CN3CCN(Cc4ccc5c(c4)OCO5)CC3)cc(=O)oc2c1 | MDBK line | 43.3 µM
CC(C)c1ccc2oc(=O)cc(CN3CCN(C/C=C/c4ccccc4)CC3)c2c1 | MDBK line | 16.3 µM

----------
subject_of_test: EGFR (Homo sapiens)
Construct: host or cells: A431
protocol: EGFR in-cell Western (ICW) screening protocol (EGFR inhibition assay)
Assay type: cell-based
Parameters: unit not given here
recorded_conditions: ICW assay, run 2
Counter-ions that a name gives are not always drawn.
reported_metric: ICW 2

compound | reported_metric | observed
COc1ccc(-c2cc(=O)[nH]c(Nc3nc(C)c4ccccc4n3)n2)cc1OC [11471 + TFA] | ICW 2 | 42.40
COC(=O)Cc1cc(=O)nc(Nc2nc(C)c3ccccc3n2)[nH]1 | ICW 2 | 25.63
Cc1cc2nc(Nc3ncc4c(n3)CC(c3cccs3)CC4=O)nc(C)c2cc1C (stereo not shown) [11681 + TFA] | ICW 2 | 29.26
COc1ccc(-c2cc(=O)[nH]c(Nc3nc(C)c4ccc(C)cc4n3)n2)cc1OC [11800 + TFA] | ICW 2 | 32.02
